Let's look at some binders and their measured antibody Binding (nm).
- assay_target: T1, mouse TrkB.hFc (mouse)
- T1 construct: also called mTrkB.hFc; mTrkB-hFc
- T1 sequence (chain, as listed by the source limits assumed): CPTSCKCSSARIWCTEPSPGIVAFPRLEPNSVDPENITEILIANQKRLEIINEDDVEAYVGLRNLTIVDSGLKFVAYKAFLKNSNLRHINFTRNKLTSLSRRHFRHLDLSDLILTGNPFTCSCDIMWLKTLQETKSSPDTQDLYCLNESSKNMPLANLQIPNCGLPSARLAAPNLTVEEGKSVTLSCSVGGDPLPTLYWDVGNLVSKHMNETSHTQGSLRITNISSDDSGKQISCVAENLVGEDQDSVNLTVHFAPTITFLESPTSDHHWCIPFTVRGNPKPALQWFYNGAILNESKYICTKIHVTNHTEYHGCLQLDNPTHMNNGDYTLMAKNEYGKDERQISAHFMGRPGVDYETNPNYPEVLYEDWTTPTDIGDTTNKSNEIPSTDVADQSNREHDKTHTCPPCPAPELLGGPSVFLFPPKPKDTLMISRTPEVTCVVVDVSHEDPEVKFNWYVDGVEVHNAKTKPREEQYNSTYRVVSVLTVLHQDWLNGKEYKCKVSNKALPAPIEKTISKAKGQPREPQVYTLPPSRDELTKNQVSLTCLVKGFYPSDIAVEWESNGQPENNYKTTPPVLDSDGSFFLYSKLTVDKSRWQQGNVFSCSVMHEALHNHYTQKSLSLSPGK
- method_notes: BLI Octet, captured mTrkB.hFc saturated with mNT-4, 300 nM mAb
Please respond with the number in nm and leave the unit unwritten.

Known results for binders:
# binder, antibody Binding (nm)
rows = [
    ("M2aM14178N (antibody, mouse IgG2a, V domains shown, Anti-mouse TrkB antibody from hybridoma, mouse IgG2a Fc; also called surrogate anti-mouse TrkB antibody) VH: EVQLVESGGGLVKPGGSLKLSCTASGFTFSSYAMSWVRQTPEKRLEWVANISDGGTYTYYPDNIKGRFTISRDNAKNNLYLQMSHLESEDTAMYYCIRGDVYYVRFAYWGQGTLVTVSA VL: QAVVTQESALTTSPGETVTLTCRSSTGAVTSSNHANWVQEKPDHLFTGLIGGTNNRAPGVPARFSGSLIGDKAALTITGAQTEDEAIYFCALWHSNHWVFGGGTKLTVLG", 0.41),
    ("H1M8037C (antibody, mouse IgG1, kappa, V domains shown, captured by anti-mFc in SPR; also called Comparator; comparator anti-TrkB monoclonal antibody) VH: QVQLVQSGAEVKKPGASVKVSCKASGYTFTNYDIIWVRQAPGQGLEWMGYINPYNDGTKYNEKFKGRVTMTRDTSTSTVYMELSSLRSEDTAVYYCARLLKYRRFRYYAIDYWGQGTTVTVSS VL: DIQMTQSPSSLSASVGDRVTITCRTSENVYSNLAWYQQKPGKAPKLLIYAASNLQSGVPSRFSGSGSGTDYTFTISSLQPEDIATYYCQHFWGSPFTFGQGTKLEIKR", 0.11),
    ("M2aM14179N (antibody, mouse IgG2a, kappa, V domains shown, Anti-mouse TrkB antibody from hybridoma, mouse IgG2a Fc; also called surrogate anti-mouse TrkB antibody) VH: EVQLQQSGPELVKPGASVKISCKASGYTLTDYYMNWVKQSHGKSLEWIGDINPNNGGTSYNQKFKGKATLTVDKSSSTAYMELRSLTSEDSAVYYCARGAYYSNYFDYWGQGTTLTVSS VL: DIVMSQSPSSLAVSAGEKVTMSCKSSQSLLNSRTRKNYLAWYQQKPGQSPKLLIYWASTRESGVPDRFTGSGSGTDFTLTISSVQAEDLAVYYCKQSYILFTFGSGTQLEIKR", 0.43),
]

Continue with the next binder.
# binder M2aM14173N (antibody, mouse IgG2a, kappa, V domains shown, Anti-mouse TrkB antibody from hybridoma, mouse IgG2a Fc; also called surrogate anti-mouse TrkB antibody) VH: NVSLVESGGGSVKPGGSLQLSCAASGFTFSSSAMSWIRQTPEMRLEWVATISDRGSYTYYPDSVEGRFTISRDNAKNILYLQMSHLMSEDTAMYYCARGKGEKAYYTAFFAYWGQGSLVTVSA VL: DIQMTQSPASLSASVGETVTITCRASENIYSYLAWYQQKPGKSPHLLVHNAETLAEGVPSRFSGSGSGPQFSLKINSLQPGDSGTYYCQHHYSSPWTFGGGTKLEIKR ; its antibody Binding (nm) = 0.4
